The reported numbers originate from PubChem BioAssay.

assay_details: PSAC antagonists in infected red cells, primary screen, cell-based, P. falciparum Indochina, OD700, 1 h (AID 1154)
assay_conditions: P. falciparum Indochina infected RBC osmotic lysis, called active from +8 up or from −8 down
The source made the active and inactive calls.
Outcomes: true (1) (active), false (0) (inactive)

>  <compound>
COC(=O)C1=C(C)N(Cc2ccccc2)c2c(C(=O)OC)c(C(=O)OC)c(C(=O)OC)c(=O)n2[C@@H]1c1ccccc1

>  <class>
false (0)

$$$$
>  <compound>
C=CCN(C(=O)C1N(c2ccc(CCO)cc2)C(=O)C2C(C(=O)O)C3C=CC21O3)C(C)(C)C (centres undefined)

>  <class>
false (0)

$$$$
>  <compound>
CN(C)CCCC[C@@H]1NC(=O)[C@@H]2C[C@H](C(=O)NCCCCCNC(=O)CS)[C@H](c3ccc(O)cc3)N2C1=O

>  <class>
false (0)

$$$$
>  <compound>
C=C(COC)C(=O)CC[C@H](OC(=O)c1ccccc1-c1ccccc1C(=O)O)c1cccc(OCCO)c1

>  <class>
false (0)

$$$$
>  <compound>
COc1ccc([C@H]2C[C@H]3C(Br)=C[C@]2(OC)C(=O)[C@]32CO2)cc1

>  <class>
false (0)

$$$$
>  <compound>
COCCOC(=O)N1C(=O)[C@@]2(c3cc(C#CCCO)ccc31)[C@H](c1ccc(OCCO)cc1)N1[C@H](c3ccccc3)[C@H](c3ccccc3)OC(=O)[C@H]1[C@@H]2C(=O)NC[C@H](O)c1ccccc1

>  <class>
false (0)

$$$$
>  <compound>
C[C@@H]1CC[C@H]2C(=O)N3[C@@H](CC[C@@H](C)[C@@H]3c3cccc(N4CCOCC4)c3)C(=O)N2[C@H]1c1cccc(N2CCOCC2)c1

>  <class>
false (0)

$$$$
>  <compound>
CCCC/C=C/[C@H]([C@@H](O)Cc1ccccc1)N(CC#Cc1ccccc1)Cc1ccccc1Br

>  <class>
false (0)

$$$$
>  <compound>
O=C1OCC=C[C@H]2OC34C=CCN(Cc5ccccc5)C(=O)[C@H]3N(CCCCCO)C(=O)[C@@H]4[C@@H]12 (some centres undefined)

>  <class>
false (0)

$$$$
>  <compound>
C=CCN1C(=O)[C@@]2(O[C@@H](CCn3cc([C@H](O)c4ccccc4)nn3)[C@H]([Si](C)(C)c3ccc(OC)cc3)[C@H]2C)c2cc(N3CCOC3=O)ccc21

>  <class>
false (0)

$$$$
>  <compound>
[N-]=[N+]=NCc1ccccc1C[C@@]1(C(=O)N2CCOCC2)N=C(c2ccc(OCCCO)cc2)O[C@@H]1c1ccccc1N=[N+]=[N-]

>  <class>
true (1)

$$$$
>  <compound>
O=C1c2ccccc2[C@](Cc2ccccc2I)(C(=O)NCC(F)(F)F)[C@H](c2ccc(CO)cc2)N1Cc1ccccc1C(F)(F)F

>  <class>
false (0)

$$$$
>  <compound>
CO[C@@H]1COC(=O)[C@H](C)NC(=O)CC=C[C@@H](C)[C@H](OC)COC(=O)[C@H](C)NC(=O)CC=C[C@H]1C

>  <class>
false (0)

$$$$
>  <compound>
C[C@H]1NC(=O)[C@@H](C)NC(=O)[C@@]23C(=O)N[C@@H](Cc4ccccc4)C2[C@H](C)[C@@]2(C)O[C@H]2C3/C=C/C/C=C\CNC1=O (some centres undefined)

>  <class>
false (0)

$$$$

====

Each entry below lists one item and its recorded z-score value.
assay_details: inhibitors of hydroxyurea-induced Chk1 phosphorylation, primary screen, imaging, HeLa, phospho-Chk1 antibody, percent positive cells (AID 1186)
assay_conditions: hydroxyurea-induced phospho-Chk1 immunofluorescence imaging, higher = more signal

>  <compound>
CCCC=C(CCC)[C@@H](NC(=O)c1ccccc1)c1ccccc1

>  <z-score>
-0.442

$$$$
>  <compound>
C=CC[C@]1(C(=O)O)N=C(c2ccc(OCCCO)cc2)O[C@H]1c1ccccc1N=[N+]=[N-]

>  <z-score>
-0.0145

$$$$
>  <compound>
C=CC[C@]1(C(=O)O)N=C(c2ccc(OCCCO)cc2)O[C@H]1c1ccccc1

>  <z-score>
-0.0836

$$$$
>  <compound>
COCCOC(=O)N1C(=O)[C@@]2(c3cc(C#CCCO)ccc31)[C@H](c1ccc(O)cc1)N1[C@H](c3ccccc3)[C@H](c3ccccc3)OC(=O)[C@H]1[C@@H]2C(=O)Nc1nc2ccccc2s1

>  <z-score>
-0.534

$$$$
>  <compound>
C=CCOC(=O)[C@@H]1[C@H]2C(=O)O[C@H](c3ccccc3)[C@H](c3ccccc3)N2[C@H](c2ccc(OCCOC(=O)[C@H]3C[C@H]4C(=O)N5CCC[C@H]5C(=O)N4[C@H]3c3ccc(O)cc3)cc2)[C@@]12C(=O)Nc1ccccc12

>  <z-score>
0.458

$$$$
>  <compound>
C=C(COC)/C(=C/C[C@@H](OC(C)=O)c1cccc(OCCO)c1)c1cc(C(=O)OC)ccc1OC

>  <z-score>
-0.8

$$$$
>  <compound>
COCCOC(=O)N1C(=O)[C@@]2(c3cc(C#CCC(C(=O)OC)C(=O)OC)ccc31)[C@H](c1ccccc1OCCO)N1[C@H](c3ccccc3)[C@H](c3ccccc3)OC(=O)[C@H]1[C@@H]2C(=O)N1CCCCCCC1

>  <z-score>
-0.304

$$$$
>  <compound>
CC[C@H]1C2=C3C(CC[C@H]4C(OC)OC[C@](C)([C@@H]34)N(C(=O)OC(C)(C)C)C2)C(CO)C1CO (some centres not stated)

>  <z-score>
-1.37

$$$$
>  <compound>
C=CCNC(=O)[C@H]1[C@@H]2C(=O)O[C@@H](c3ccccc3)[C@@H](c3ccccc3)N2[C@@H](c2ccccc2OCCO)[C@]12C(=O)N(C(=O)OCCOC)c1ccc(C#CCC(C(=O)OC)C(=O)OC)cc12

>  <z-score>
-0.263

$$$$
>  <compound>
CO[C@H]1O[C@H](CO)[C@@H](OC(=O)Nc2ccc(Oc3ccccc3)cc2)[C@H](OC(=O)Nc2ccccc2-c2ccccc2)[C@H]1OC(=O)Nc1ccccc1-c1ccccc1

>  <z-score>
-0.0605

$$$$
>  <compound>
CCC#CCN(Cc1ccccc1Br)[C@H](/C=C/c1ccccc1)[C@@H](O)Cc1ccccc1

>  <z-score>
-0.415

$$$$
>  <compound>
O=C1O[C@@H](c2ccccc2)[C@@H](c2ccccc2)N2[C@@H](c3ccc(O)cc3)[C@]3(C(=O)Nc4ccccc43)[C@@H](C(=O)N3CCN(c4ncccn4)CC3)[C@H]12

>  <z-score>
-0.231

$$$$
>  <compound>
CCCC[C@@H]1C[C@H]1[C@@H](NC(=O)c1ccccc1)c1ccccc1C(F)(F)F

>  <z-score>
0.726

$$$$
>  <compound>
COCCCNC(=O)[C@@]1(c2ccc([N+](=O)[O-])cc2)CC(=O)N(C2CCCCC2)[C@@H]1c1ccc(CO)cc1

>  <z-score>
0.029

$$$$
>  <compound>
CCCCCCc1nc(C2CC2)c(C)c2c1[Si](C(C)C)(C(C)C)OC2

>  <z-score>
-0.53

$$$$
>  <compound>
C=CCN1C(=O)[C@]2(O[C@H](CCn3cc(CCO)nn3)[C@@H]([Si](C)(C)c3ccc(OC)cc3)[C@@H]2C)c2cc(NC(=O)c3ccc(OC)cc3)ccc21

>  <z-score>
-0.798

$$$$
>  <compound>
COC(=O)Cn1c(C(=O)N2CCCC2)cc2c1C[C@H]1CN(C(=O)c3ccccc3)[C@@](Cc3ccc(OC)cc3)(C(=O)OC)[C@@H]21

>  <z-score>
0.847

$$$$
>  <compound>
COc1cc(CO)cc(I)c1O[C@H]1C=C(C(=O)NCCO)C[C@@H](NCCc2c[nH]c3ccccc23)[C@@H]1O

>  <z-score>
-0.925

$$$$
>  <compound>
CC(C)[Si]1(C(C)C)O[C@@H](c2ccccc2)c2cc(C3CC3)nc(-c3ccc(Oc4ccccc4)cc3)c21

>  <z-score>
-0.446

$$$$
>  <compound>
CN1C(=O)C2C=CC(C(O)c3ccc(N(C)C)cc3)N(Nc3ccc([N+](=O)[O-])cc3[N+](=O)[O-])C2C1=O (configuration not stated)

>  <z-score>
0.347

$$$$
>  <compound>
Cc1ccc(S[C@]2(C(=O)NC(C)C)CC(=O)N(Cc3cc(C(F)(F)F)cc(C(F)(F)F)c3)[C@@H]2c2ccc(CO)cc2I)cc1

>  <z-score>
0.392

$$$$
>  <compound>
CN(C)c1ccc(C(O)C2C=CC3C(=O)NC(=O)C3N2Nc2ccc(Cl)cc2Cl)cc1 (configuration not stated)

>  <z-score>
-0.0923

$$$$
>  <compound>
CC(C)[C@H]1NC(=O)[C@@]23C(=O)N[C@@H](Cc4ccccc4)C2[C@H](C)[C@@]2(C)O[C@H]2C3/C=C/C/C=C\CNC(=O)[C@H](C)NC1=O (some centres not stated)

>  <z-score>
0.126

$$$$
>  <compound>
COc1cc2c(cc1OC)CN(C(=O)[C@H]1[C@@H]3C(=O)O[C@@H](c4ccccc4)[C@@H](c4ccccc4)N3[C@@H](c3ccc(O)cc3)[C@]13C(=O)Nc1ccc(C#CC4(O)CCCCCC4)cc13)CC2

>  <z-score>
-0.0159

$$$$
>  <compound>
CCCCO[C@H]1C[C@H]2C(Br)=C[C@@]1(CO)C(=O)[C@]21CO1

>  <z-score>
-0.407

$$$$
>  <compound>
O=C1C[C@@](C(=O)NCCN2CCOCC2)(c2ccc([N+](=O)[O-])cc2)[C@@H](c2ccc(CO)cc2)N1C1CCCCC1

>  <z-score>
-0.0132

$$$$
>  <compound>
CC[C@@H]1C=C(C(=O)O)[C@H](c2ccccc2)N1S(=O)(=O)c1ccc([N+](=O)[O-])cc1

>  <z-score>
-0.0036

$$$$
